# assayed_system: T1, human NPR1 full-length protein overexpressed on CHO-K1 cells (human, UniProt P16066 33-1061)
# T1 sequence: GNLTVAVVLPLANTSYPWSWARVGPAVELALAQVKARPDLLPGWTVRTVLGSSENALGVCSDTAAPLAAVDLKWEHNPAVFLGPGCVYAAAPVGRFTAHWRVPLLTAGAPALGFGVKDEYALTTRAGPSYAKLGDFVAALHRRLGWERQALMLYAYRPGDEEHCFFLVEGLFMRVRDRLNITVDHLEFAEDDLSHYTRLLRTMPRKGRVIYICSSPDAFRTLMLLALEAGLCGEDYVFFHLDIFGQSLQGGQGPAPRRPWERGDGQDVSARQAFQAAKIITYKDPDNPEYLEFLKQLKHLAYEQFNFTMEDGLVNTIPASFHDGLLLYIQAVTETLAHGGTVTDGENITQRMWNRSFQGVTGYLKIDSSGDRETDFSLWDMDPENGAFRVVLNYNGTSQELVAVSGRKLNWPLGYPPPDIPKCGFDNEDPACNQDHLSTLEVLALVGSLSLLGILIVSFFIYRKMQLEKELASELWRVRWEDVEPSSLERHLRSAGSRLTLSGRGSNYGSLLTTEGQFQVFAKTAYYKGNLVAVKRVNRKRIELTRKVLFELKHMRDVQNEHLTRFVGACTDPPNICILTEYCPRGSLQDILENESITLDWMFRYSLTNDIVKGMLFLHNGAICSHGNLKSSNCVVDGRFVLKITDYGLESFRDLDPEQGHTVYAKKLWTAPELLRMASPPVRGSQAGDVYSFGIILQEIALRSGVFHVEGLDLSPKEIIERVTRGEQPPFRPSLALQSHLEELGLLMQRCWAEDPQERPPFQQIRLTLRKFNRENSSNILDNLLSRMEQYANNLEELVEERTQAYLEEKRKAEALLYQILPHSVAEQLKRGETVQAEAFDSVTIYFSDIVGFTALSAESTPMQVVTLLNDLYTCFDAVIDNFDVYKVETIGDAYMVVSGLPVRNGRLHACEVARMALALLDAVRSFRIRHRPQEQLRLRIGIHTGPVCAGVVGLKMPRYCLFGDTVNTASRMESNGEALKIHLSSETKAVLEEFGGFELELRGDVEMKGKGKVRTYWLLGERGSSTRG
# experimental_details: cell-based or functional assay
measured_quantity: cGMP production: Emin
// return just the number, without any unit appended

Prompt: Entry CHI-102 (antibody, human IgG1, kappa, V domains shown) VH: DVKLVESGEGLVKPGGSLKLSCAASGFTFSTYAMSWVRQTPEKRLEWVAYISRGGDYIYYADTVKGRFTISRDNARNTLYLQMSSLKSEDTAMYYCTRDQTTVVVHWYFDVWGTGTTVTVSS VL: QIVLTQSPAIMSASPGEKVTMTCSASSSINYMHWYQQKPGTSPKRWIYDTSKLASGVPARFSGSGSGTSYSLTISSMEAGDAATYYCHQRNSYTFGGGTKLEIKR needs its cGMP production: Emin filled in; supply it.
Response: 0.23

Prompt: Entry Hu102H5L6 (antibody, human IgG1, kappa, L234A L235A, V domains shown) VH: DVKLVESGEGLVKPGGSLRLSCAASGFTFSTYGMSWVRQAPGKRLEWVAYISRGGDYIYYADTVKGRFTISRDNAKNSLYLQMNSLRAEDTAVYYCTRDQTTVVVHWYFDVWGQGTTVTVSS VL: DIQLTQSPSSLSASVGDRVTITCSASSSINYMHWYQQKPGKSPKRWIYDTSKLASGVPSRFSGSGSGTDYTLTISSLQPEDFATYYCHQRNSYTFGGGTKVEIKR needs its cGMP production: Emin filled in; supply it.
Response: 0.21

Prompt: Entry Hu102H4L6 (antibody, human IgG1, kappa, L234A L235A, V domains shown, Humanized, human IgG1 LALA/kappa; also called Hul02H4L6) VH: DVKLVESGEGLVKPGGSLRLSCAASGFTFSSYAMSWVRQAPGKRLEWVAYISRGGDYIYYADSVKGRFTISRDNAKNSLYLQMNSLRAEDSAVYYCTRDQTTVVVHWYFDVWGQGTTVTVSS VL: DIQLTQSPSSLSASVGDRVTITCSASSSINYMHWYQQKPGKSPKRWIYDTSKLASGVPSRFSGSGSGTDYTLTISSLQPEDFATYYCHQRNSYTFGGGTKVEIKR needs its cGMP production: Emin filled in; supply it.
Response: 0.17

Prompt: Entry Hu102H3L6 (antibody, human IgG1, kappa, L234A L235A, V domains shown) VH: DVKLVESGEGLVKPGGSLRLSCAASGFTFSTYAMSWVRQAPGKRLEWVAYISRGGDYIYYADTVKGRFTISRDNAKNSLYLQMNSLRAEDTAVYYCTRDQTTVVVHWYFDVWGQGTTVTVSS VL: DIQLTQSPSSLSASVGDRVTITCSASSSINYMHWYQQKPGKSPKRWIYDTSKLASGVPSRFSGSGSGTDYTLTISSLQPEDFATYYCHQRNSYTFGGGTKVEIKR needs its cGMP production: Emin filled in; supply it.
Response: 0.16

The measured values listed here are drawn from patent EP4725963A1.
